measurementTarget: COX2 (Homo sapiens, UniProt P35354)
Construct: purchased Sino Biological Co. (Beijing, China)
Sequence (P35354 18-604): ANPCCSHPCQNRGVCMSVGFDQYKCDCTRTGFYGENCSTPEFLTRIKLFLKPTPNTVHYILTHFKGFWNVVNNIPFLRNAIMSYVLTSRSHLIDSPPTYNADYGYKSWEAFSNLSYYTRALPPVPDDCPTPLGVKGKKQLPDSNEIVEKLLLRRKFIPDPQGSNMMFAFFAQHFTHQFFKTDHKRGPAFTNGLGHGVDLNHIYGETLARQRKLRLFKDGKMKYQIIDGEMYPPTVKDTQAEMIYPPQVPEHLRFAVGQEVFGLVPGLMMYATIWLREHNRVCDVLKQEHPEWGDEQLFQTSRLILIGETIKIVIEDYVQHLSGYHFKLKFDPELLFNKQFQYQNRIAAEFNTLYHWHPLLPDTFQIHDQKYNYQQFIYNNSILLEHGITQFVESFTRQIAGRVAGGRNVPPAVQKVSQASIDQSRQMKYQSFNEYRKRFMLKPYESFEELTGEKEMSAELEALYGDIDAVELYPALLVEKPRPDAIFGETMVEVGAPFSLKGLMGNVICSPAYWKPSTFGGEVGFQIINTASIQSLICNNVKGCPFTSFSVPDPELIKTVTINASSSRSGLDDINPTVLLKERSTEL
experimentalDetails: Biolayer interferometry (BLI) binding to His-tagged COX2 on Ni-NTA sensors
measurementConditions: BLI, one-to-one binding model, 4–6 point concentration series; read-out: KD (equilibrium dissociation constant)
quantity: pKd
Just so you know, pKd here is -log10 of the concentration in molar units; reply with that number alone.

>  <testSmiles>
CC(C)(C)c1ccc(C(=O)c2c(Cl)cc(O)c(O)c2O)cc1

>  <recordedValue>
3.20

$$$$

Form field pKd for item CCCCc1ccc(C(=O)c2c(Br)cc(O)c(O)c2O)cc1 on COX2 (Homo sapiens, UniProt P35354): 3.40

Form field pKd for item CC(C)Cc1ccc(C(=O)c2c(Br)cc(O)c(O)c2O)cc1 on COX2 (Homo sapiens, UniProt P35354): 3.12

----------
Tested on: EA.hy926 cells
experimentalDetails: Protective effect against H2O2-induced oxidative damage, MTT assay
Type: cell-based, human
measurementConditions: Homo sapiens, EA.hy 926, 4 h, protection against H2O2-induced damage (400 µmol·L^−1, 4 h), n = 3, mean ± SD
quantity: pEC50
Just so you know, pEC50 here is -log10 of the concentration in molar units; reply with that number alone.

Form field pEC50, entry O=c1c(O)c(-c2ccc(O)c(O)c2)oc2cc(O)cc(O)c12 [Quereetin, quercetin, reference compound] : 5.10
